Reported IC50 by item:
# Test System: recombinant human cIAP2-BIR3 protein (Homo sapiens)
# Construct: recombinant human cIAP2-BIR3 protein; purchased Reaction biology APT-11-372
# Sequence (Q13489 238-349 limits assumed): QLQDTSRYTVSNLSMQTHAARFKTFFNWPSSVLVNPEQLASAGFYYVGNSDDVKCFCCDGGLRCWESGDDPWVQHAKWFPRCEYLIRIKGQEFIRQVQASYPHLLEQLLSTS
# Protocol Details: Recombinant human c-IAP2-BIR3 biochemical assay (HTRF, peptide displacement)
# Condition Parameters: 3.7 nM cIAP2-BIR3, 3.7 nM AbuRPF-K(5-Fam)-NH2 peptide, read-out: Protein binding IC50 (nM) c-IAP2
Measured Metric: IC50 (nM)

compound=C[C@@H]1CN(CC(=O)N2c3cc(Cc4ccc(F)cc4)c(OCCO)nc3OC[C@@H]2C)[C@@H](CN2[C@H](C)COC[C@H]2C)CN1 measured_metric=IC50 assay_value=0.41
compound=C[C@@H]1CN(CC(=O)N2c3cc(Cc4ccc(F)cc4)c(C(=O)N4CCOCC4)nc3OC[C@@H]2C)[C@@H](CN2[C@H](C)COC[C@H]2C)CN1 measured_metric=IC50 assay_value=0.42
compound="C[C@@H]1CN(CC(=O)N2c3cc(Cc4ccc(F)cc4)c(CO)nc3OC[C@@H]2C)[C@@H](CN2CCOC[C@H]2C2CC2)CN1 [Example 84A]" measured_metric=IC50 assay_value=0.44
compound=C[C@@H]1CN(CC(=O)N2CC(C)(C)Oc3nc(Br)c(Cc4ccc(F)cc4)cc32)[C@@H](CN2CCOC[C@H]2C)CN1 measured_metric=IC50 assay_value=44
compound=CC[C@@H]1COCCN1C[C@H]1CN[C@H](C)CN1CC(=O)N1c2cc(Cc3ccc(F)cc3)c(CO)nc2OC[C@@H]1C measured_metric=IC50 assay_value=0.67
compound=CC(C)OC[C@@H]1COCCN1C[C@H]1CN[C@H](C)CN1CC(=O)N1c2cc(Cc3ccc(F)cc3)c(CO)nc2OC[C@@H]1C measured_metric=IC50 assay_value=0.67
compound=C[C@@H]1CN(CC(=O)N2c3cc(Cc4ccc(F)cc4)cnc3OC[C@@H]2COc2ccccc2)[C@@H](CN2CCOC[C@H]2C)CN1 measured_metric=IC50 assay_value=0.24

----------
Reported IC50 by item:
# Test System: recombinant human cIAP1-BIR3 protein (Homo sapiens)
# Construct: recombinant human cIAP1-BIR3 protein; purchased Reaction biology APT-11-370
# Protocol Details: Recombinant human c-IAP1-BIR3 biochemical assay (HTRF, peptide displacement)
# Condition Parameters: 1.2 nM cIAP1-BIR3, 3 nM AbuRPF-K(5-Fam)-NH2 peptide, read-out: Protein binding IC50 (nM) c-IAP1
Measured Metric: IC50 (nM)

smiles_record=C[C@@H]1CN(CC(=O)N2c3cc(Cc4ccc(F)cc4)c(NCC(F)(F)F)nc3OC[C@@H]2C)[C@@H](CN2[C@H](C)COC[C@H]2C)CN1 assay_value=0.34
smiles_record=Cc1ccc([C@H]2COc3ncc(Cc4ccc(F)cc4)cc3N2C(=O)CN2C[C@@H](C)NC[C@@H]2CN2CCOC[C@H]2C)cc1 assay_value=0.35
smiles_record=CCNc1nc2c(cc1Cc1ccc(F)cc1)N(C(=O)CN1C[C@@H](C)NC[C@@H]1CN1[C@H](C)COC[C@H]1C)[C@@H](C)CO2 assay_value=0.25
smiles_record=C[C@@H]1CN(CC(=O)N2c3cc(Cc4ccc(F)cc4)c(C(N)=O)nc3OC[C@@H]2C)[C@@H](CN2CCOCC23CC3)CN1 assay_value=0.35
smiles_record=COCCOCCNC(=O)c1nc2c(cc1Cc1ccc(F)cc1)N(C(=O)CN1C[C@@H](C)NC[C@@H]1CN1[C@H](C)COC[C@H]1C)[C@@H](C)CO2 assay_value=0.29
smiles_record=C[C@@H]1CN(CC(=O)N2CCOc3nc(C4CC4)c(Cc4ccc(F)cc4)cc32)[C@@H](CN2CCOC[C@H]2C)CN1 assay_value=1.1
smiles_record=C[C@@H]1CN(CC(=O)N2c3cc(Cc4ccc(F)cc4)c(C(=O)NCC(F)(F)F)nc3OC[C@@H]2C)[C@@H](CN2[C@H](C)COC[C@H]2C)CN1 assay_value=0.25

----------
# Test System: recombinant human cIAP1-BIR3 protein (Homo sapiens, UniProt Q13490)
# Construct: recombinant human cIAP1-BIR3 protein; purchased Reaction biology APT-11-370
# Sequence (Q13490 253-363 limits assumed): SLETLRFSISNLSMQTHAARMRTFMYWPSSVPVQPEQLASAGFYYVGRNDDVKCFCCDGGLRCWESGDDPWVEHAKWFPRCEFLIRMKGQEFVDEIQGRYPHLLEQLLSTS
# Protocol Details: Recombinant human c-IAP1-BIR3 biochemical assay (HTRF, peptide displacement)
# Condition Parameters: 1.2 nM cIAP1-BIR3, 3 nM AbuRPF-K(5-Fam)-NH2 peptide, read-out: Protein binding IC50 (nM) c-IAP1
Reported IC50 by item:
Measured Metric: IC50 (nM)

smiles_record=C[C@@H]1CN(CC(=O)N2c3cc(Cc4ccc(F)cc4)c(C(N)=O)nc3OC[C@@H]2C)[C@@H](CN2CCOC[C@H]2C)CN1 test_system="recombinant human cIAP1-BIR3 protein (Homo sapiens, UniProt Q13490)" assay_value=0.33
smiles_record=C[C@@H]1CN(CC(=O)N2c3cc(Cc4ccc(F)cc4)c(CO)nc3OC[C@@H]2C)[C@@H](CN2[C@H](C)CN(C)C[C@H]2C)CN1 test_system="recombinant human cIAP1-BIR3 protein (Homo sapiens, UniProt Q13490)" assay_value=0.28
smiles_record=C[C@@H]1CN(CC(=O)N2c3cc(Cc4ccc(F)cc4)c(NCCO)nc3OC[C@@H]2C)[C@@H](CN2[C@H](C)COC[C@H]2C)CN1 test_system="recombinant human cIAP1-BIR3 protein (Homo sapiens, UniProt Q13490)" assay_value=0.24
